Each recorded value in this set is attributed to PubChem BioAssay (Tox21).

- TEST: qHTS assay to identify small molecule antagonists of the estrogen related receptor signaling pathway with the pleiotropic PPARgamma coactivator (PGC) cell viability counter screen (AID 1224822;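 further: viability read after 17.5 h compound exposure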)
- MEASUREMENT PARAMETERS: ERR/PGC reporter cell line viability counter screen; series mostly up to 46.1 µM
Inconclusive results are not listed. Activity calls are given as the source filed them. The call rests on the fitted dose curve; in most records, active means well fitted cell-killing curve with a large enough effect in the repeat runs; inconclusive means weak or mixed curves, or effect the other way; inactive means flat fitted curve, though single readings scatter.
Returns: one label drawn from True (active), False (inactive)

1. CCCCCCCCCCCCCCCCCC(=O)OC(CC(=O)O)C[N+](C)(C)C (stereo not drawn) ... False

Exercise: What outcome does the record of this test show for CC1CCN(CC[C@H]2CCCN2S(=O)(=O)c2cccc(O)c2)CC1 ?
Key: False

Exercise: What outcome does the record of this test show for CCSC(=N)N ?
Key: False

Exercise: What outcome does the record of this test show for CCCC(CCC)C(=O)OC1CC2CCC(C1)[N+]2(C)C (stereo not drawn) ?
Key: False

Exercise: What outcome does the record of this test show for COc1cccc(C(=O)NCCN2CCN(c3ccc(Cl)cc3)CC2)c1 ?
Key: False

Exercise: What outcome does the record of this test show for CC(C)(C)NCC(O)COc1nsnc1N1CCOCC1 (stereo not drawn) ?
Key: False

Exercise: What outcome does the record of this test show for COc1ccc(/C=C2\COc3ccc(C)cc3C2=O)cc1O ?
Key: False

Exercise: What outcome does the record of this test show for O=S(=O)(c1cccc2c(Cl)cccc12)N1CCCNCC1 ?
Key: False

Exercise: What outcome does the record of this test show for C=C[C@H]1CN2CC[C@@H]1C[C@H]2[C@H](O)c1ccnc2ccc(OC)cc12 ?
Key: False

Exercise: What outcome does the record of this test show for C[C@@H](CN1CCC(Cc2ccccc2)CC1)[C@@H](O)c1ccc(O)cc1 ?
Key: False

Exercise: What outcome does the record of this test show for O=C(Nc1ccc2c(c1)CCN(Cc1ncn[nH]1)C2)c1ccccc1-c1ccc(C(F)(F)F)cc1 ?
Key: False

Exercise: What outcome does the record of this test show for COc1cc([C@@H]2c3cc4c(cc3[C@H](O)C3COC(=O)[C@@H]32)OCO4)cc(OC)c1OC (stereo partly drawn) ?
Key: False

Exercise: What outcome does the record of this test show for O=Nc1c(-c2c(O)[nH]c3ccccc23)[nH]c2ccccc12 ?
Key: True

Exercise: What outcome does the record of this test show for CCCCCCC/C=C\CCCCCCCCC(=O)O ?
Key: False

###

- STUDY SYSTEM: Nuclear receptor ROR-gamma (Homo sapiens) (UniProt P51449)
- TEST: qHTS assay to identify small molecule antagonists of the retinoid-related orphan receptor gamma (ROR-gamma) signaling pathway (AID 1159521; further: nearly all actives have a fitted effect of over 50% in size; further: potency means the concentration at half of the fitted maximal effect)
- MEASUREMENT PARAMETERS: Tet-on RORgamma CHO cells, RORE-luciferase, 16 h; series mostly up to 92.4 µM
Records with an inconclusive call do not appear. Active and inactive are the calls of the source. Calls come from the whole dose curve; as a rule, active = well fitted inhibition curve with a large enough effect in the repeat runs; inconclusive = weak or mixed curves, or effect the other way; inactive = no such curve, though single readings can be large or run the other way.
TEST READOUT: Potency

Past entries and their recorded results:
1. Cc1cc(C)c(O)c(C(C)(C)C)c1 ... inactive
2. NC(=O)C1CO1 (centres undefined) ... inactive
3. O=C1CCCCCCCCCCCCCC1 ... inactive
4. CC1CCC(C(C)(C)O)CC1 (centres undefined) ... inactive
5. O=[N+]([O-])c1ccc(CO)cc1 ... inactive

Each of the following entries comes with a recorded value; kindly state Potency for each.
1. C1=CCCC1
2. CCCCCCCC/C=C\CCCCCCCC(=O)N(CCO)CCO
3. c1ccc(C[P+](c2ccccc2)(c2ccccc2)c2ccccc2)cc1
4. CC(C)=CCC[C@H](C)CC=O
5. CC(C)(C)c1ccc(OC2CCCCC2O)cc1 (centres undefined)
6. O=C1OC2(c3ccccc31)c1ccc(O)c(Br)c1Oc1c2ccc(O)c1Br

Key:
inactive
30.5 µM (active)
24.3 µM (active)
inactive
inactive
inactive

###

- TEST: qHTS assay to identify small molecule HDAC inhibitors (AID 1259364);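 further: wild-type HCT-116 cells with endogenous class I/II HDAC activity; top concentration of the series differs between compounds; nearly all actives have a fitted effect of over 45% in size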
- MEASUREMENT PARAMETERS: HCT-116 HDAC-Glo I/II luminescence, 2 h; series mostly up to 92.4 µM
Inconclusive results are not listed. Activity calls are given as the source filed them. Calls follow the shape of the dose curve; as a rule, active = well fitted inhibition curve with a large enough effect in the repeat runs; inconclusive = weak or mixed curves; inactive = flat fitted curve, though single readings scatter.
TEST READOUT: outcome

1. Cc1c(Cl)c(=O)oc2cc(O)ccc12 ... inactive
2. COCCC(=O)OC ... inactive
3. Oc1ccc(C2(c3ccc(O)c(C4CCCCC4)c3)CCCCC2)cc1C1CCCCC1 ... inactive

###

- TEST: qHTS assay to identify small molecule antagonists of the progesterone receptor (PR) signaling pathway - cell viability counter screen (AID 1346798); further: nearly all actives have a fitted effect of over 50% in size
- MEASUREMENT PARAMETERS: PR-UAS-bla HEK293T viability, CellTiter-Glo luminescence, 16 h; series mostly up to 92.4 µM
Records with an inconclusive call do not appear. The source made the active and inactive calls. Calls follow the shape of the dose curve; as a rule, active = well fitted cell-killing curve with a large enough effect in the repeat runs; inconclusive = weak or mixed curves, or effect the other way; inactive = no such curve, though single readings can be large or run the other way.
Returns: one label drawn from T = active, F = inactive

1. CC1CCC(C(C)(C)O)CC1 (stereo not given) ... F
2. O=[N+]([O-])c1ccc(O)c2ncccc12 ... T
3. CC(C)c1ccc2sc3ccccc3c(=O)c2c1 ... F

Exercise: What outcome does the record of this test show for CCCCC/C=C\C=C\C(=O)OCC ?
Key: F

Exercise: What outcome does the record of this test show for Cc1cccc(C)c1C ?
Key: F

Exercise: What outcome does the record of this test show for CN1CCN(C)CC1 ?
Key: F

Exercise: What outcome does the record of this test show for Nc1cc([N+](=O)[O-])ccc1Cl ?
Key: F

Exercise: What outcome does the record of this test show for O=C1c2ccccc2C(=O)c2c(Cl)cccc21 ?
Key: F

Exercise: What outcome does the record of this test show for NC(=O)c1ccccc1Cl ?
Key: F

Exercise: What outcome does the record of this test show for Cc1ccc(C2OC[C@@H]3OC(c4ccc(C)cc4)O[C@H]([C@H](O)CO)[C@@H]3O2)cc1 (stereo not given in full) ?
Key: F

Exercise: What outcome does the record of this test show for Cc1cc(F)ccc1-c1cc(N2CC[C@@H](O)[C@H]2CO)ncc1N(C)C(=O)C(C)(C)c1cc(C(F)(F)F)cc(C(F)(F)F)c1 ?
Key: F

###

- TEST: qHTS assay for identifying genotoxic compounds that show differential cytotoxicity against isogenic chicken DT40 cell lines with known DNA damage response pathways - wild type cell line (AID 743012); further: nearly all actives have a fitted effect of over 60% in size; further: potency means the concentration at half of the fitted maximal effect
- MEASUREMENT PARAMETERS: DT40 wild type chicken cells viability, CellTiter-Glo, 40 h; series mostly up to 68.4 µM
Results filed as inconclusive are left out. Activity calls are given as the source filed them. The call rests on the fitted dose curve; in most records, active means well fitted cell-killing curve with a large enough effect in the repeat runs; inconclusive means weak or mixed curves, or effect the other way; inactive means no such curve, though single readings can be large or run the other way.
TEST READOUT: Potency

Past entries and their recorded results:
1) CC(C)(COP(=O)(O)OP(=O)(O)OC[C@H]1O[C@@H](n2cnc3c(N)ncnc32)[C@H](O)[C@@H]1OP(=O)(O)O)C(O)C(=O)NCCC(=O)NCCS (stereo partly drawn) ... inactive
2) CN1CCN(CCCN2c3ccccc3Sc3ccc(Cl)cc32)CC1 ... 5.96 µM (active)
3) Cc1cn([C@H]2C[C@H](O)[C@@H](CO)O2)c(=O)[nH]c1=O ... inactive
4) O=C(CCCN1CCN2CCCC2C1)c1ccc(F)cc1 (stereo not drawn) ... 11.9 µM (active)
5) Cc1ccc(C(C)(C)c2ccc(C)cc2)cc1 ... inactive

Each of the following entries comes with a recorded value; kindly state Potency for each.
1. CC(C)c1ccc2sc3ccccc3c(=O)c2c1
2. O=C1OC(=O)c2cc(-c3ccc4c(c3)C(=O)OC4=O)ccc21
3. CO/N=C(\C(=O)N[C@@H]1C(=O)N2C(C(=O)O)=C(CSc3cnns3)CS[C@H]12)c1csc(N)n1

Key:
48.6 µM (active)
17.2 µM (active)
inactive

###

- TEST: qHTS assay to identify small molecule antagonists of the sonic hedgehog signaling (Shh) pathway (AID 1259369); further: nearly all actives have a fitted effect of over 45% in size
- MEASUREMENT PARAMETERS: NIH/3T3 Gli1-Luc reporter, Shh antagonist, luminescence 24 h; series mostly up to 92.4 µM
Inconclusive results are not listed. Active and inactive are the calls of the source. Calls come from the whole dose curve.
Returns: one label drawn from active, inactive

Before answering, review these 3 worked examples.
1. CCN(CCC#N)c1ccc(N=Nc2ccc([N+](=O)[O-])cc2)cc1 ... inactive
2. CC(C)(C)c1cc(CCC(=O)OCCSCCOC(=O)CCc2cc(C(C)(C)C)c(O)c(C(C)(C)C)c2)cc(C(C)(C)C)c1O ... inactive
3. Nc1ccc(F)c([N+](=O)[O-])c1 ... inactive

Exercise: What outcome does the record of this test show for C=CCc1cc(S(=O)(=O)c2ccc(O)c(CC=C)c2)ccc1O ?
Key: inactive

Exercise: What outcome does the record of this test show for CC(c1cc(C(C)(C)C)cc(C(C)(C)C)c1O)c1cc(C(C)(C)C)cc(C(C)(C)C)c1O ?
Key: inactive

Exercise: What outcome does the record of this test show for Nc1cc([N+](=O)[O-])cc(Cl)c1O ?
Key: inactive

Exercise: What outcome does the record of this test show for O=[N+]([O-])c1ccc(CO)cc1 ?
Key: inactive

Exercise: What outcome does the record of this test show for CC(=O)Nc1ccc(N=Nc2cc(C)ccc2O)cc1 ?
Key: active

Exercise: What outcome does the record of this test show for CCCCCCCCc1ccc(Nc2ccc(CCCCCCCC)cc2)cc1 ?
Key: inactive
